Origin of values: patent US20240018502A1

- measured_on: plasma purified human complement protein C3 (human) (UniProt P01024)
- Sequence (P01024 23-667, chain 1 of 2): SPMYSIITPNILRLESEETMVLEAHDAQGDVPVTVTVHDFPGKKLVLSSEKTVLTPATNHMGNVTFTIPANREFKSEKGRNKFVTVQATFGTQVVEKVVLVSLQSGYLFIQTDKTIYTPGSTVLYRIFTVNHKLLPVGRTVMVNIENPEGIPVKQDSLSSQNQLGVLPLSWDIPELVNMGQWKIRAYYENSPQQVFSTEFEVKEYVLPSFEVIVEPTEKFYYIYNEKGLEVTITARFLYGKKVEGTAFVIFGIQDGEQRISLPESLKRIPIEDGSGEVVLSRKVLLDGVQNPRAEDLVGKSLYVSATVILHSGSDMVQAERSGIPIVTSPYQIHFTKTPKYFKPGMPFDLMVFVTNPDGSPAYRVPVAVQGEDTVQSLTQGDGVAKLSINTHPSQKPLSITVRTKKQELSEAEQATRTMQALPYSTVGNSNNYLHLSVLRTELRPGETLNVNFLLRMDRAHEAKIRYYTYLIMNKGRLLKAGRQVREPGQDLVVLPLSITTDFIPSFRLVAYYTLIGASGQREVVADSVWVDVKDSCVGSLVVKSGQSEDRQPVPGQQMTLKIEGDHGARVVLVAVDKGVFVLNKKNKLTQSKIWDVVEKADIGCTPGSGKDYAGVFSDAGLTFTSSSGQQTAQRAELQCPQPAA
- Sequence (P01024 672-1663, chain 2 of 2): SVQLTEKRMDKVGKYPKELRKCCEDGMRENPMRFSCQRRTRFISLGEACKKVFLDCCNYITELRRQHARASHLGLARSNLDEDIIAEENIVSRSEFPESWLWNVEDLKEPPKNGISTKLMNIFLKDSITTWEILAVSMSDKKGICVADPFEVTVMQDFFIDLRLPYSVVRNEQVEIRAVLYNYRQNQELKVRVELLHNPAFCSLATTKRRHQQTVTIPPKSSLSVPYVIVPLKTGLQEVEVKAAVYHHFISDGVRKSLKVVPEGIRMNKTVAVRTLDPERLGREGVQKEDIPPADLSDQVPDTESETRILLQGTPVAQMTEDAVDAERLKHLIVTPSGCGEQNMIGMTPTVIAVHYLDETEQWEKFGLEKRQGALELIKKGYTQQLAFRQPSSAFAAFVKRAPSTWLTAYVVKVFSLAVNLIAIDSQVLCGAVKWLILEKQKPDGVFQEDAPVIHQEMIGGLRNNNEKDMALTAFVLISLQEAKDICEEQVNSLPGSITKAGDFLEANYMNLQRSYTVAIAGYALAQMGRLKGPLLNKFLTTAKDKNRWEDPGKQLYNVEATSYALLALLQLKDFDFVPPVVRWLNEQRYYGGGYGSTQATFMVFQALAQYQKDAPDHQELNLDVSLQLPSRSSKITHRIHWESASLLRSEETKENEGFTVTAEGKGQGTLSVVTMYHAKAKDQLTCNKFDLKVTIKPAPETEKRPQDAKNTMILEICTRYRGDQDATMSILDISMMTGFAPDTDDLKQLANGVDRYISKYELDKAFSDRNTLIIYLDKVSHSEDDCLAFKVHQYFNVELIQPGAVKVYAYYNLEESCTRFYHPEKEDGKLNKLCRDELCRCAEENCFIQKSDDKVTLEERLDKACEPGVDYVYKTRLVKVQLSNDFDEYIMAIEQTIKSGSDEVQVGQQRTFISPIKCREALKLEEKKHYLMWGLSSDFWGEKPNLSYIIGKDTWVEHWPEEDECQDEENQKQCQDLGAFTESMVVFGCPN
- test_method_notes: cell-based or functional assay
Field: EC50 of hC3 cleavage. Provide a value for each of the binders that follow.
Numbers only, in nM.

[[record]]
binder = "MTSP-1 Q38L/I41A/D60bH/F60eT/ins97aV/F97D/T98P/F99L/C122S/G151Q/Q175A/Q192G (enzyme) VVGGTDADEGEWPWQVSLHALGLGHACGASLISPNWLVSAAHCYIDHRGTRYSDPTQWTAFLGLHDQSQRSAPGVQERRLKRIISHPFFNDDVPLDYDIALLELEKPAEYSSMVRPISLPDASHVFPAGKAIWVTGWGHTQYGGTQALILQKGEIRVINQTTCENLLPQAITPRMMCVGFLSGGVDSCGGDSGGPLSSVEADGRIFQAGVVSWGDGCAQRNKPGVYTRLPLFRDWIKENTGV"
parameter = "EC50 of hC3 cleavage"
unit_symbol = "nM"
meas_value = 5.73


Read the next record carefully.
Please list EC50 of hC3 cleavage recorded for the binder MTSP-1 Q38H/I41S/D60bA/F60eV/ins97aE/F97T/T98G/F99L/C122S/Q175L/Q192E/Q209L (enzyme) VVGGTDADEGEWPWQVSLHALGHGHSCGASLISPNWLVSAAHCYIDARGVRYSDPTQWTAFLGLHDQSQRSAPGVQERRLKRIISHPFFNDTEGLDYDIALLELEKPAEYSSMVRPISLPDASHVFPAGKAIWVTGWGHTQYGGTGALILQKGEIRVINQTTCENLLPQLITPRMMCVGFLSGGVDSCEGDSGGPLSSVEADGRIFLAGVVSWGDGCAQRNKPGVYTRLPLFRDWIKENTGV 16.9
